target: FER (Homo sapiens); construct: the DNA-tagged SH2 domain concentrations used in this study were <0.1 nM; made in house; host or cells: HEK293 (transient transfection; unpurified extract); test: biochemical; assay type: binding; conditions: read-out: percent of DMSO vehicle control
Sequence (P16591 460-550 limits assumed): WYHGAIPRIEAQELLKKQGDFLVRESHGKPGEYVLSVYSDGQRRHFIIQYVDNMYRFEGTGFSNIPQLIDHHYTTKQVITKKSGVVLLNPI
Non-standard residues stand in square brackets, D forms with d. Residues, ends and D or L forms follow the SMILES beside them. *: point of attachment. pY = N[C@@H](Cc1ccc(OP(=O)(O)O)cc1)C(=O)O; Caffeoyl = O=C(/C=C/c1ccc(O)c(O)c1)*
metric: percent of DMSO vehicle control at 10 µM (%)
The answer is to be given in %; state only the numeric part.

{"compound": "CC(=O)N1CC[C@H]2CC[C@@H](C(=O)N[C@@H](CCC(N)=O)C(=O)NC(c3ccccc3)c3ccccc3)N2C(=O)[C@@H](NC(=O)c2cc3cc(C(F)(F)P(=O)(O)O)ccc3[nH]2)C1", "metric": "percent of DMSO vehicle control at 10 µM", "unitsSymbol": "%", "number": 107}
{"compound": "NC(=O)CC[C@H](NC(=O)[C@@H]1CC[C@@H]2CCN(C(=O)CCCCCC#Cc3cccc4c3CN(C3CCC(=O)NC3=O)C4=O)C[C@H](NC(=O)c3cc4cc(C(F)(F)P(=O)(O)O)ccc4[nH]3)C(=O)N21)C(=O)NC(c1ccccc1)c1ccccc1 (stereo partly shown)", "metric": "percent of DMSO vehicle control at 10 µM", "unitsSymbol": "%", "number": 74.4}
{"compound": "CC(=O)N[C@@H](Cc1ccc(CP(=O)(O)O)cc1)C(=O)NC1(C(=O)N[C@@H](CC(N)=O)C(=O)NCCCc2c(O)ccc3ccccc23)CCCCC1", "metric": "percent of DMSO vehicle control at 10 µM", "unitsSymbol": "%", "number": 136}

API: the following record is the query input.
Briefly, percent of DMSO vehicle control at 10 µM measured for CC[C@H](C)[C@H](NC(=O)[C@H](CCC(=O)O)NC(=O)[C@H](CCC(=O)O)NC(=O)[C@H](Cc1ccc(OP(=O)(O)O)cc1)NC(=O)/C=C/c1ccc(O)c(O)c1)C(=O)N[C@@H](CCC(=O)O)C(=O)O [Caffeic acid-pYEEIE] (Caffeoyl-[pY]EEIE-OH) : 0.8

----------
target: CBLB (Homo sapiens); construct: the DNA-tagged SH2 domain concentrations used in this study were <0.1 nM; made in house; host or cells: HEK293 (transient transfection; unpurified extract); experiment: biochemical; type: binding; conditions: primary screen, 10 μM
Sequence (Q13191 241-343 limits assumed): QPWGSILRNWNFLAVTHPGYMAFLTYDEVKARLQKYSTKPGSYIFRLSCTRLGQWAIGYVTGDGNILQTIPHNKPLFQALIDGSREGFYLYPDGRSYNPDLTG
Kind request: treat 90% as inclusive, so percent of DMSO vehicle control at 90% or higher is yes (1), anything lower is no (0).

Record O=C(CCl)Nc1cccc(CNC(=O)[C@H](Cc2ccc(OP(=O)(O)O)cc2)NC(=O)Cc2ccc(F)cc2)c1 ; criterion: percent of DMSO vehicle control no lower than 90%. Met?
no (0)

Assess whether reported percent of DMSO vehicle control for O=C(COc1ccc2cc(C(=O)Nc3ccccc3)ccc2c1)NCc1ccc(OP(=O)(O)O)c(OP(=O)(O)O)c1 sits at 90% or higher.
no (0)

Hi, just wondering whether C/C(=C\C(=O)N[C@H](C(=O)N1CCC[C@H]1C(=O)N(c1ccccc1)c1ccc(I)cc1)C(C)(C)C)c1ccc(OP(=O)(O)O)cc1 shows percent of DMSO vehicle control of 90% or higher.
no (0)

Is percent of DMSO vehicle control for NC(=O)CC[C@H](NC(=O)[C@@H]1CC[C@@H]2CCN(C(=O)CCCCCC#Cc3cccc4c3CN(C3CCC(=O)NC3=O)C4=O)C[C@H](NC(=O)c3cc4cc(C(F)(F)P(=O)(O)O)ccc4[nH]3)C(=O)N21)C(=O)NC(c1ccccc1)c1ccccc1 (some centres unmarked) at or above 90%?
no (0)

Is reported percent of DMSO vehicle control greater than or equal to 90% here: CC(=O)N1CC[C@H]2CC[C@@H](C(=O)N[C@@H](CCC(N)=O)C(=O)NC(c3ccccc3)c3ccccc3)N2C(=O)[C@@H](NC(=O)c2cc3cc(C(F)(F)P(=O)(O)O)ccc3[nH]2)C1
yes (1)
